Below, each entry is listed with its recorded TGI.
System: MALME-3M melanoma
protocol-summary: NCI tumour cell line growth inhibition, 48 h
measurement-type: TGI

1. CN(C)c1ccc(/C=C(\NC(=O)c2ccccc2)C(=O)NC(Cc2c[nH]c3ccccc23)C(=O)O)cc1 (centres undefined)	> 100 µM
2. CCCCCCCCCC(=O)NC(Cc1ccc(O)cc1)C(=O)NCCCNCCCCNCCCNC(=O)[C@@H](N)CCCN=C(N)N (some centres undefined)	39.7 µM
3. CCC[CH2][Sn]([CH2]CCC)([O]C(=O)c1cccc(F)c1F)[O]C(=O)c1cccc(F)c1F	1.89 µM
4. Cn1cncc1-c1c(F)cncc1NC(=O)c1c(N)nn2cc(F)cnc12	68.5 µM

====

Below, each entry is listed with its recorded TGI.
Test system: HS 578T breast
protocol-summary: NCI tumour cell line growth inhibition, 48 h
measurement-type: TGI

1) C=CCCC(=O)C(=[N+]=[N-])C(=O)CCC(=O)c1ccccc1	> 10 µM
2) C[C@H]1O[C@@H](C(C)(C)C)OC(=O)[C@@H]1C(OC(=O)c1ccccc1)c1cccc2ccccc12 (stereo not given in full)	> 100 µM
3) COc1ccc(-c2n[nH]nc2-c2cc(OC)c3c(c2)OCO3)cc1	3.72 µM
4) CCN(CC)c1nc(NC2CCCCC2)c2nc(N(CC)CC)nc(NC3CCCCC3)c2n1	> 100 µM
5) Nc1nc2c(ccc3ccccc32)s1	> 100 µM
6) O=C1Nc2ccccc2/C1=C/c1cn(CC(O)Cn2cc(/C=C3\C(=O)Nc4ccccc43)c3ccccc32)c2ccccc12 (stereo not given)	7.85 µM
7) CCOc1ccc(N=Cc2ccnc3ccccc23)cc1	> 100 µM
8) O=c1c2c3c(sc2nc2n1N=CN(c1ccc(F)cc1)C2)CCCC3	> 100 µM
9) O=P1(Cc2ccccc2)c2ccccc2-c2ccccc21	> 72 µM
10) Cc1cc(NS(=O)(=O)c2ccc(Nc3c4ccccc4nc4c(C(=O)NCCO)cccc34)cc2)no1	> 100 µM

====

Below, each entry is listed with its recorded TGI.
System: K-562 leukemia
protocol-summary: NCI tumour cell line growth inhibition, 48 h
measurement-type: TGI

1. COC(=O)[C@H](Cc1c[nH]c2ccccc12)NC(=O)c1ccccc1I	> 100 µM
2. Cc1ccc(C2C(Cl)C(=O)N2NC(=O)c2ccc(N)cc2)cc1 (stereo unspecified)	61.2 µM
3. Cc1ccc(S(=O)(=O)NC(=O)NC(CCC(N)=O)C(=O)O)cc1 (stereo unspecified)	> 100 µM
4. Cn1cc(C2=C(c3ccccc3C(F)(F)F)C(=O)NC2=O)c2ccccc21	> 25 µM
5. CC(C)C(=S)N(C)O	> 100 µM
6. COC(=O)N/N=C(\C)C(CN(C)C)C(c1ccccc1)c1c(O)c2ccccc2oc1=O (stereo unspecified)	> 100 µM
7. CC1(C)C(=O)C(=Cc2ccco2)C1=O	> 100 µM
8. C=C(CO)CC(/C=C(\C)CC/C=C(\C)CCl)OC(C)=O (stereo unspecified)	> 100 µM
9. CN1CCN(CCCOc2cccc3nc(Nc4ccc(F)c(F)c4)ccc23)CC1	1.49 µM
10. C1=NCCOCCN=Cc2ccc(cc2)OCc2cccc(n2)COc2ccc1cc2	> 100 µM
11. CCc1nn2ncccc2c1-c1ccnc(NC2CC2)n1	> 25 µM
12. CCN(CC)c1ccc(N=Nc2ccc(-c3nc4cccn(C)c-4n3)cc2)cc1	11.9 µM
13. CCC(C)(O)c1cn(-c2ccc(S(=O)(=O)O)cc2)nn1 (stereo unspecified)	> 100 µM
14. CCC(=O)Nc1ccc(NCC(=O)Nc2ccc(OC)cc2)cc1	> 100 µM
15. CC[C@@H](O)C[C@H]1CCC[C@@]2(C[C@@H]3OC(=O)/C=C/[C@@](C)(O)[C@@H](O)[C@H](C)[C@@H](O)[C@H](OC4CCC(N(C)C)C(C)O4)[C@@H](O)[C@](C)(O)CCCCC/C=C/[C@@H]4CC(C)(C)O[C@@]4(O)C[C@H](O2)[C@H]3C)O1 (stereo partly specified)	21.5 µM
16. COc1cccc2nc3c(C(=O)NCCN(C)C)cccc3nc12	25.2 µM
17. COc1cc2c3c(c1OC)C(=O)C=C3N(S(=O)(=O)c1ccc(C)cc1)CC2	> 100 µM
18. OC12c3ccccc3C1CCCCCC21OCCCO1 (stereo unspecified)	> 100 µM
19. O=C1NC(=Nc2ccccc2Cl)N/C1=C\c1ccc(Cl)cc1Cl	> 100 µM
20. CC1(C)OC2OC(COC(=O)c3ccc(C#N)cc3)C3OC(C)(C)OC3C2O1 (stereo unspecified)	> 75 µM
21. COc1cc(S(=O)(=O)Nc2ccc(-c3csc(N4C(=O)C(Cl)C4c4cccs4)n3)cc2)ccc1Cl (stereo unspecified)	> 100 µM
